test: Sumatriptan pharmacokinetics in female Sprague Dawley rats; details: rat, in vivo, sc, 0.358 mg
attribute measured: bioavailability
# include the unit after the value

Q) Could you tell me which bioavailability is on file for CNS(=O)(=O)Cc1ccc2[nH]cc(CCN(C)C)c2c1 ?
A) 36.4%

###

assay: Sumatriptan pharmacokinetics in female Sprague Dawley rats; settings: rat, in vivo, iv, 0.358 mg
attribute measured: bioavailability (%)
Give the number; % is assumed, so skip it.

Q) Reported bioavailability for CNS(=O)(=O)Cc1ccc2[nH]cc(CCN(C)C)c2c1 : what is it?
A) 100
